In this section we review reported CC50 values for a set of compounds.
- Tested on: HT29
- EXPERIMENT: cells
- Format: cell-based
- ASSAY SETUP: Homo sapiens, HT-29, 48 h, read-out: LC50, HT29, 48 hours exposure, SRB
Express the result in nM but write the number alone.

Reference set (2 entries):
*Q* Need CC50 of COc1c(C)cc2c(c1O)[C@@H]1C3[C@@H]4SC[C@]5(NCCc6c5[nH]c5ccc(C)cc65)C(=O)COC[C@@H](c5c6c(c(C)c(OC(C)=O)c54)OCO6)N3[C@@H](O)[C@H](C2)N1C (stereo partly drawn) , thanks.
*A* 1.04

*Q* Entry COc1c(C)cc2c(c1O)[C@@H]1C3[C@@H]4SC[C@]5(NC(C)Cc6c5[nH]c5ccc(F)cc65)C(=O)COC[C@@H](c5c6c(c(C)c(OC(C)=O)c54)OCO6)N3[C@@H](O)[C@H](C2)N1C (stereo partly drawn) : reported CC50 = ?
*A* 12700

In the following, a different compound is considered.
*Q* // CC50 lookup, key: COc1c(C)cc2c(c1O)[C@@H]1C3[C@@H]4SC[C@]5(NCCc6c5[nH]c5ccc(OCc7ccccc7)cc65)C(=O)COC[C@@H](c5c6c(c(C)c(OC(C)=O)c54)OCO6)N3[C@@H](O)[C@H](C2)N1C (stereo partly drawn)
*A* 105

* * *

Some compounds, each annotated with its measured IC (TGI).
- System: IGROV
- EXPERIMENT: cells
- Assay type: cell-based
- ASSAY SETUP: Homo sapiens, 48 h, 48 hours exposure, SRB
The reply should contain only the number, in nM.

*Q* Recorded IC (TGI) for COc1c(C)cc2c(c1O)[C@@H]1C3[C@@H]4SC[C@]5(NCCc6c5[nH]c5ccccc65)C(=O)COC[C@@H](c5c6c(c(C)c(OC(=O)C(F)(F)C(F)(F)C(F)(F)F)c54)OCO6)N3[C@@H](C#N)[C@H](C2)N1C (stereo partly shown) , please?
*A* 63.3

* * *

- Tested on: LOVO
- EXPERIMENT: cells
- Format: cell-based
- ASSAY SETUP: LOVO
- Source text: The finality of these assays is to interrupt the growth of a “in vitro” tumor cell culture by means of a continued exhibition of the cells to the sample to be testing. A colorimetric type of assay, using sulphorhodamine B (SRB) reaction has been adapted for a quantitative measurement of cell growth and viability [following the technique described by Philip Skehan, et al. (1990), New colorimetric cytotoxicity assay for anticancer drug screening, J. Natl. Cancer Inst., 82:1107-1112] […]
Recorded TGI, one value per entry.
Kindly provide the number alone.

*Q* Please report the recorded TGI for COc1c(C)cc2c(c1OC(=O)OC(C)(C)C)[C@@H]1C3[C@@H]4SC[C@]5(NCCc6c5[nH]c5ccccc65)C(=O)COC[C@@H](c5c6c(c(C)c(OC(C)=O)c54)OCO6)N3[C@@H](O)[C@H](C2)N1C (stereo partly shown) .
*A* 5.70E−08

*Q* Return reported TGI; argument: C=COC(=O)Oc1c(OC)c(C)cc2c1[C@@H]1C3[C@@H]4SC[C@]5(NCCc6c5[nH]c5ccccc65)C(=O)COC[C@@H](c5c6c(c(C)c(OC(C)=O)c54)OCO6)N3[C@@H](O)[C@H](C2)N1C (stereo partly shown)
*A* 4.64E−08

*Q* Item COc1c(C)cc2c(c1O)[C@@H]1C3[C@@H]4SC[C@]5(NC(C)Cc6c5[nH]c5ccccc65)C(=O)COC[C@@H](c5c6c(c(C)c(OC(C)=O)c54)OCO6)N3[C@@H](O)[C@H](C2)N1C (stereo partly shown) [Compound 44] has what recorded TGI?
*A* 5.10E−08

Continuing:
*Q* State the recorded TGI for this entry: COc1c(C)cc2c(c1O)[C@@H]1C3[C@@H]4SC[C@]5(NC(C)Cc6c5[nH]c5ccccc65)C(=O)COC[C@@H](c5c6c(c(C)c(OC(C)=O)c54)OCO6)N3[C@@H](O)[C@H](C2)N1C (stereo partly shown) [Compound 43]
*A* 8.32E−09
